All figures here come from patent US7713994B2.

// pIC50 lookup, one value per entry
- Tested on: HCT-116
- Measurement Notes: Cytotoxicity assay (SRB), HCT-116
- Format: cell-based
- Condition Context: Homo sapiens, HCT-116, 72 h, HCT116 cells, SRB, three days; read-out: In Vitro Cellular Activity IC50 HCT116
// pIC50 here means minus log10 of the molar concentration (mol/L)

Data request: Which value of pIC50 has been reported for `CC(=O)N1CCC(c2ccc(N/C=C3\C(=O)NC(=O)c4ccc(-c5ccoc5)cc43)cc2)CC1` in the records?
Data returned: 5.52

Data request: Which value of pIC50 has been reported for `CCCCOc1ccc(CN/C=C2\C(=O)NC(=O)c3ccc(Br)cc32)cc1O` in the records?
Data returned: 4.74

Data request: Which value of pIC50 has been reported for `O=C1NC(=O)c2ccccc2/C1=C/Nc1cccc(CCN2CCCC2)c1` in the records?
Data returned: 4.96

###

- Target System: cyclin E/CDK2 enzyme (Homo sapiens, UniProt P24941)
- Construct: made in house; host or cells: Sf9 insect cells, recombinant baculovirus
- Measurement Notes: CDK2 ELISA kinase assay (phospho-Rb ser 795 detection)
- Type: biochemical
- Condition Context: In Vitro Enzyme Assay, cyclin E/CDK2, read-out: CDK2 IC50
// IC50 lookup, one value per entry

{"Test Smiles": "CN1CCN(c2ccc(NC=C3C(=O)NC(=O)c4ccc(-c5ccc(C(=O)O)cc5)cc43)cc2)CC1", "IC50": "> 50 µM"}
{"Test Smiles": "CC(C)N1CCN(c2ccc(N/C=C3\\C(=O)NC(=O)c4ccc(-c5ccoc5)cc43)nc2)CC1", "IC50": "> 50 µM"}
{"Test Smiles": "O=C1NC(=O)c2ccc(I)cc2/C1=C/NCc1ccc(I)c(O)c1", "IC50": "> 50 µM"}

# input for lookup
Data request: Which value of IC50 has been reported for `O=C1NC(=O)c2ccc(I)cc2/C1=C/NCc1ccc(NC(=O)c2ccco2)c(O)c1` in the records?
Data returned: > 50 µM

###

// IC50 lookup, one value per entry
- Target System: cyclin D1/cdk 4 enzyme (Homo sapiens, UniProt P11802)
- Construct: made in house; host or cells: Sf9 insect cells, recombinant baculovirus
- Sequence (P11802 whole entry, species assumed): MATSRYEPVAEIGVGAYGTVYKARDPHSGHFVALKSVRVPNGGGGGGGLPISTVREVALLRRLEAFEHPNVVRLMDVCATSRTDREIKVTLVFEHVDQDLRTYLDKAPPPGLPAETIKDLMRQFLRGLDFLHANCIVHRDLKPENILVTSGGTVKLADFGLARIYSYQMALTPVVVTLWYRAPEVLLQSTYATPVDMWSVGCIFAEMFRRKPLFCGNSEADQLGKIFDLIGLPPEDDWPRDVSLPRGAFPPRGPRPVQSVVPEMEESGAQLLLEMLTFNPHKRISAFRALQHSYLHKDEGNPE
- Sequence (P24385 whole entry partner, species assumed): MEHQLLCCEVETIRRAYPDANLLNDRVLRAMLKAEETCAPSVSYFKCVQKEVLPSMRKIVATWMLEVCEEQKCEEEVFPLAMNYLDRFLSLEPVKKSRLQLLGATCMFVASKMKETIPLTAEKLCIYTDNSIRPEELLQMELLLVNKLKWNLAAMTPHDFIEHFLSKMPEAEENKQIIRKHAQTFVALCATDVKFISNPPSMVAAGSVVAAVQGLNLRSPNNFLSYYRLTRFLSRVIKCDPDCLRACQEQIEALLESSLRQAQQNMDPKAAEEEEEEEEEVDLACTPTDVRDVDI
- Measurement Notes: CDK4 ELISA kinase assay (phospho-Rb ser 795 detection)
- Type: biochemical
- Condition Context: In Vitro Enzyme Assays, 200 μM ATP, read-out: CDK4 IC50
Write the answer as a number in nM, unit excluded.

Study these solved cases before continuing.
{"Compound": "O=C1NC(=O)c2ccc(Br)cc2/C1=C/NCCCCO [Example 211]", "Target System": "cyclin D1/cdk 4 enzyme (Homo sapiens, UniProt P11802)", "IC50, nM": 2500}
{"Compound": "O=C1NC(=O)c2ccc(-n3cccc3)cc2C1=CNCc1cc(=O)c(O)co1 [Example 312]", "Target System": "cyclin D1/cdk 4 enzyme (Homo sapiens, UniProt P11802)", "IC50, nM": 270}

# input for lookup
Data request: Which value of IC50 has been reported for CN(C)CCS(=O)(=O)c1ccc(N/C=C2\C(=O)NC(=O)c3ccc(Br)cc32)cc1 [Example 243] in the records?
Data returned: 1200

###

- Target System: cyclin D1/cdk 4 enzyme (Homo sapiens, UniProt P11802)
- Construct: made in house; host or cells: Sf9 insect cells, recombinant baculovirus
- Measurement Notes: CDK4 ELISA kinase assay (phospho-Rb ser 795 detection)
- Format: biochemical
- Condition Context: In Vitro Enzyme Assay, cyclin D1/cdk 4, read-out: CDK4 IC50
Test Readout: log10 IC50 (log10 of the value in µM)
Could you please treat all values as log10 of IC50 in µM?

Data request: Which value of log10 IC50 has been reported for `O=C(O)CSc1ccc(NC=C2C(=O)NC(=O)c3ccccc32)cc1` in the records?
Data returned: 1.55

Data request: Which value of log10 IC50 has been reported for `NS(=O)(=O)c1ccc(CNC=C2C(=O)NC(=O)c3ccc(C=CC4CCCCC4)cc32)cc1` in the records?
Data returned: 0.68

Data request: Which value of log10 IC50 has been reported for `N#CCc1ccc(NC=C2C(=O)NC(=O)c3ccc(-c4cccc5cccnc45)cc32)cc1` in the records?
Data returned: 1.17

Data request: Which value of log10 IC50 has been reported for `COC[C@@H]1CCCN1Cc1ccc(N/C=C2\C(=O)NC(=O)c3ccc(-c4ccco4)cc32)cc1` in the records?
Data returned: -0.68

Data request: Which value of log10 IC50 has been reported for `CN1CCN(c2ccc(NC=C3C(=O)NC(=O)c4ccc(-c5ccc6ccccc6c5)cc43)cc2)CC1` in the records?
Data returned: 1.34

###

- Test system: HCT-116
- Measurement Notes: Cytotoxicity assay (SRB), HCT-116
- Type: cell-based
- Condition Context: Homo sapiens, HCT-116, 72 h, HCT116 cells, SRB, three days; read-out: In Vitro Cellular Activity IC50 HCT116
// pIC50 lookup, one value per entry
// pIC50 here means minus log10 of the molar concentration (mol/L)

Data request: Which value of pIC50 has been reported for `C[C@@H]1CN(c2ccc(N/C=C3\C(=O)NC(=O)c4ccc(-c5ccoc5)cc43)cc2)C[C@H](C)N1` in the records?
Data returned: 5.96

Data request: Which value of pIC50 has been reported for `O=C1NC(=O)c2ccc(Br)cc2/C1=C/NCc1ccc(OC(F)F)c(O)c1` in the records?
Data returned: 5.23

Data request: Which value of pIC50 has been reported for `O=C1NC(=O)c2cc(Br)ccc2/C1=C/Nc1ccc(CN2CCCCC2)cc1` in the records?
Data returned: 5.44

Data request: Which value of pIC50 has been reported for `CCCNc1ccc(CN/C=C2\C(=O)NC(=O)c3ccc(I)cc32)cc1O` in the records?
Data returned: 5.48

Data request: Which value of pIC50 has been reported for `CONCCCc1ccc(N/C=C2\C(=O)NC(=O)c3ccc(Br)cc32)cc1` in the records?
Data returned: 5.02

###

- Target System: cyclin D1/cdk 4 enzyme (Homo sapiens, UniProt P11802)
- Construct: made in house; host or cells: Sf9 insect cells, recombinant baculovirus
- Measurement Notes: CDK4 ELISA kinase assay (phospho-Rb ser 795 detection)
- Format: biochemical
- Condition Context: In Vitro Enzyme Assay, cyclin D1/cdk 4, read-out: CDK4 IC50
// NB: equality with 200 nM counts as NO; only IC50 strictly below is YES

Solved entries:
{"Test Smiles": "CC(C)N1CCN(c2ccc(N/C=C3\\C(=O)NC(=O)c4ccc(-c5ccoc5)cc43)nc2)CC1", "Category Label": "NO"}
{"Test Smiles": "CN1CCN(c2ccc(NC=C3C(=O)NC(=O)c4ccc(-c5ccco5)cc43)cc2)CC1", "Category Label": "YES"}
{"Test Smiles": "O=C1NC(=O)c2ccc(-c3ccc[nH]3)cc2C1=CNCc1ccc(O)c(O)c1", "Category Label": "YES"}
{"Test Smiles": "N=C(N)c1ccc(NC=C2C(=O)NC(=O)c3ccccc32)cc1", "Category Label": "NO"}
{"Test Smiles": "O=C1NC(=O)c2ccc(I)cc2/C1=C/NCc1ccc(I)c(O)c1", "Category Label": "YES"}

Data request: Check if IC50 falls below 200 nM for `O=C1NC(=O)c2ccccc2C1=CNc1ccccc1-c1nc2ccccc2[nH]1` .
Data returned: NO

###

// pIC50 lookup, one value per entry
- Tested on: LoVo
- Measurement Notes: Cytotoxicity assay (SRB), LoVo
- Assay type: cell-based
- Condition Context: Homo sapiens, LoVo, 72 h, LoVo cells, SRB, three days; read-out: In Vitro Cellular Activity IC50 LOVO
// pIC50 here means minus log10 of the molar concentration (mol/L)

Study these solved cases before continuing.
{"Test Smiles": "O=C1NC(=O)c2ccc(Br)cc2/C1=C/Nc1ccc(CN2CCOCC2)cc1", "Data Value": 4.96}
{"Test Smiles": "CN1CCN(CCCNC=C2C(=O)NC(=O)c3ccc(-n4cccc4)cc32)CC1", "Data Value": 4.96}
{"Test Smiles": "CN1CCN(c2ccc(N/C=C3\\C(=O)NC(=O)c4ccc(NS(=O)(=O)c5ccccc5)cc43)cc2)CC1", "Data Value": 4.96}
{"Test Smiles": "COc1cc(CN/C=C2\\C(=O)NC(=O)c3ccc(Br)cc32)cc(OC(C)=O)c1OC", "Data Value": 5.08}
{"Test Smiles": "CN(C)CCSc1ccc(N/C=C2\\C(=O)NC(=O)c3ccc(Br)cc32)cc1", "Data Value": 5.07}

Data request: Which value of pIC50 has been reported for `COc1ccc(CN/C=C2\C(=O)N(C(C)=O)N(C(C)=O)c3ccccc32)cc1O` in the records?
Data returned: 4.92

Data request: Which value of pIC50 has been reported for `C[C@@H]1CN(c2ccc(N/C=C3\C(=O)NC(=O)c4ccc(-c5ccsc5)cc43)cc2)C[C@H](C)N1` in the records?
Data returned: 5.13
